Every entry's value here was drawn from patent US20240116985A1.

molecular target: full-length beta-Catenin (Uniprot ID P35222) (Homo sapiens (Human)) (UniProt P35222); assay: fluorescence polarization competition; peptide titrated against 10 nM full-length beta-catenin + 10 nM 5FAM-TCF4(10-53)
Sequence (P35222 whole entry): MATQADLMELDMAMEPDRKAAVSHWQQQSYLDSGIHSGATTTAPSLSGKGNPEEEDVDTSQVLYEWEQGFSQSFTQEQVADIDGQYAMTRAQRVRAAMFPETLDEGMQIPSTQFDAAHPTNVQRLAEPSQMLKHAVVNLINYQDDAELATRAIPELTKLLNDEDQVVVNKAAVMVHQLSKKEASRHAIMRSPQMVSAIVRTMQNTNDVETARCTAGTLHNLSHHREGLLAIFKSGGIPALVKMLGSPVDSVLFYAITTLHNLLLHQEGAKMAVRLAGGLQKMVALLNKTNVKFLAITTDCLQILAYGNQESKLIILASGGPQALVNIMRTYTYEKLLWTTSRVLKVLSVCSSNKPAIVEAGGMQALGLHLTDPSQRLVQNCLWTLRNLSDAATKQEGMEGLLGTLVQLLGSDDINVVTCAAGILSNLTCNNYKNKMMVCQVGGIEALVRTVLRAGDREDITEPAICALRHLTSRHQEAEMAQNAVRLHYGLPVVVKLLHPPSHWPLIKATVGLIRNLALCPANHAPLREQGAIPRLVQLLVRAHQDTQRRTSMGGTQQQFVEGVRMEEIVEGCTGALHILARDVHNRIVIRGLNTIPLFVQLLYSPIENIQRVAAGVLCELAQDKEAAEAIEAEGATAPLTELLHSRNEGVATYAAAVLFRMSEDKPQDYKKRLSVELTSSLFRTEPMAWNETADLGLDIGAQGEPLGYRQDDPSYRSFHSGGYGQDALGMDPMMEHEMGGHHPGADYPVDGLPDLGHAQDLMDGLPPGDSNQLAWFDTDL
Non-standard residues stand in square brackets, D forms with d. Bta = N[C@@H](Cc1csc2ccccc12)C(=O)O; tBuAla = CC(C)(C)C[C@H](N)C(=O)O; 3Thi = N[C@@H](Cc1ccsc1)C(=O)O; αMeP = C[C@@]1(C(=O)O)CCCN1; Aib = CC(C)(N)C(=O)O
assay.readout: IC50 (nM)
Provide only the numeric value, understood in nM.

Using the record for Ac-[αMeP]D[tBuAla][Aib]DDAAFQ[Aib][3Thi][Bta]H-NH2 (SMILES CC(=O)N1CCC[C@@]1(C)C(=O)N[C@@H](CC(=O)O)C(=O)N[C@@H](CC(C)(C)C)C(=O)NC(C)(C)C(=O)N[C@@H](CC(=O)O)C(=O)N[C@@H](CC(=O)O)C(=O)N[C@@H](C)C(=O)N[C@@H](C)C(=O)N[C@@H](Cc1ccccc1)C(=O)N[C@@H](CCC(N)=O)C(=O)NC(C)(C)C(=O)N[C@@H](Cc1ccsc1)C(=O)N[C@@H](Cc1csc2ccccc12)C(=O)N[C@@H](Cc1c[nH]cn1)C(N)=O) [I-2228] , report its IC50. 2140
